test_target: T1, cyno IL-33 N-His (cynomolgus monkey)
T1 chain: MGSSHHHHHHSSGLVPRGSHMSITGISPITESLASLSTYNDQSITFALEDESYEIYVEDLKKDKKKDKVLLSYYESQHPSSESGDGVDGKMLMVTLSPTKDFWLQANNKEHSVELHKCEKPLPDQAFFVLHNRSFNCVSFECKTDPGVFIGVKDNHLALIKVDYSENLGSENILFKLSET
procedure_details: SPR Biacore T200, 25 C
Assign a class from recorded Kd; defined classes: low value: < 2 nM; medium value: ≥ 2 nM and < 6 nM; high value: ≥ 6 nM

- binder: "H4H9640P (antibody, IgG4, V domains shown, also called RG6) VH: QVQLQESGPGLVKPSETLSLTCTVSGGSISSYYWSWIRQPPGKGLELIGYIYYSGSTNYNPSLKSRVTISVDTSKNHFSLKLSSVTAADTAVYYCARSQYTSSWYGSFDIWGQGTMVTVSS VL: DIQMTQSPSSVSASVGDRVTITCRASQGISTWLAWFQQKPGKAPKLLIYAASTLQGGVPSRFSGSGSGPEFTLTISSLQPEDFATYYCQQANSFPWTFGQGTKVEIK"
  assigned_label: "medium value"
- binder: "H4H9664P (antibody, V domains shown) VH: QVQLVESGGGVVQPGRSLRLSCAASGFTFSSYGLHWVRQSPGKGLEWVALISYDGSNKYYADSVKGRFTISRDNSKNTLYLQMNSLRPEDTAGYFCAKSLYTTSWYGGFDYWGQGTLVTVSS VL: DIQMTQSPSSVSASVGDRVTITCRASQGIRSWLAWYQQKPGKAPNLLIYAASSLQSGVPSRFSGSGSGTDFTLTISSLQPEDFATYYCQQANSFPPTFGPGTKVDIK"
  assigned_label: "medium value"
- binder: "H4H9672P (antibody, V domains shown) VH: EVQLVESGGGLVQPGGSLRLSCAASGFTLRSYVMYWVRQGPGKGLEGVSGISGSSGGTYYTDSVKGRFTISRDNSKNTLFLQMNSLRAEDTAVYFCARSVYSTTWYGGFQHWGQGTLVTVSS VL: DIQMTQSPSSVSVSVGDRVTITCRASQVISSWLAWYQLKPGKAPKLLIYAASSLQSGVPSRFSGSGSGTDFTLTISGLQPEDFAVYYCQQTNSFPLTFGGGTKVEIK"
  assigned_label: "medium value"
- binder: "H1M9559N (antibody, IgG1, V domains shown, also called RG1) VH: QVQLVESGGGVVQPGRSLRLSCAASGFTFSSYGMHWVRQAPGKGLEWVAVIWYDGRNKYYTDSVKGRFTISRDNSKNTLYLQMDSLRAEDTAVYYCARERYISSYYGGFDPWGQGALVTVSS VL: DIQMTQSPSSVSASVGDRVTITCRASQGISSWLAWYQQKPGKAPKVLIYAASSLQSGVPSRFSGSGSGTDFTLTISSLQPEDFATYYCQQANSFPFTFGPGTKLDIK"
  assigned_label: "medium value"
- binder: "H4H9633P (antibody, IgG4, V domains shown, also called RG5) VH: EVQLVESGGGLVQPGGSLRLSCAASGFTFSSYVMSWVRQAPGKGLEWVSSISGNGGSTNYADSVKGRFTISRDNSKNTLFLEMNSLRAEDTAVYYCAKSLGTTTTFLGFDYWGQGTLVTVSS VL: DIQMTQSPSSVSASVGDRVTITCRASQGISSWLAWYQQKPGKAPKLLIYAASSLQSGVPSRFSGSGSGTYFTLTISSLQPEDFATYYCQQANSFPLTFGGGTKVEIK"
  assigned_label: "high value"
- binder: "H4H9665P (antibody, V domains shown) VH: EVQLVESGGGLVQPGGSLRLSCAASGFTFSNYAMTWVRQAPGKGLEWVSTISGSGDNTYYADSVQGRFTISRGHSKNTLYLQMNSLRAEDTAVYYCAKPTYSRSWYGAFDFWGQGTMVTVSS VL: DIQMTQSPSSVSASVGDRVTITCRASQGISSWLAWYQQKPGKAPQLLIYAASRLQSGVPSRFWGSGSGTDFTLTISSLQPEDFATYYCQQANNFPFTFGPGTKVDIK"
  assigned_label: "low value"
- binder: "H1M9566N (antibody, IgG1, V domains shown, also called RG2) VH: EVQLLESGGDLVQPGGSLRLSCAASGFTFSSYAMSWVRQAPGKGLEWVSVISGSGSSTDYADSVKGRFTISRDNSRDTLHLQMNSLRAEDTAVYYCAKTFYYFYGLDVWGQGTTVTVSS VL: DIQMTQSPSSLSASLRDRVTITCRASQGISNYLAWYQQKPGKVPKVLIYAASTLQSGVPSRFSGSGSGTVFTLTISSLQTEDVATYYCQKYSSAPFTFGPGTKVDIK"
  assigned_label: "low value"
- binder: "H4H9663P (antibody, V domains shown) VH: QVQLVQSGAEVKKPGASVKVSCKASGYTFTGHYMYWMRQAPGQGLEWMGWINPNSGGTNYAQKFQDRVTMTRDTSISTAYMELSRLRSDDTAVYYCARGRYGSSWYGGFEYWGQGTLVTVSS VL: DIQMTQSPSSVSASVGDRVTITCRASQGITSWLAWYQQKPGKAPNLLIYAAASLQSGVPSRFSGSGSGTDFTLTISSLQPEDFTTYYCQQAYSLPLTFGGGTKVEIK"
  assigned_label: "low value"
- binder: "H4H9629P (antibody, IgG4, V domains shown, also called RG4) VH: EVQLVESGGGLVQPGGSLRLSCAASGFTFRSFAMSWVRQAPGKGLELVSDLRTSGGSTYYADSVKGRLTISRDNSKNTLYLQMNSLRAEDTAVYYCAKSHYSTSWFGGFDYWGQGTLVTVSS VL: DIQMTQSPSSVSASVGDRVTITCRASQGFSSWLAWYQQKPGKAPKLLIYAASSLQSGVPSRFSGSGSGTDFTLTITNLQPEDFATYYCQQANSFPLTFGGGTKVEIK"
  assigned_label: "high value"
- binder: "H4H9659P (antibody, IgG4, V domains shown, also called RG7) VH: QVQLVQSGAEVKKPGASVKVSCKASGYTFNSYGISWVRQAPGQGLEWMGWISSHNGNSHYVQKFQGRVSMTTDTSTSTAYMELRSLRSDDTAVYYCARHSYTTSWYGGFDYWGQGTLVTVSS VL: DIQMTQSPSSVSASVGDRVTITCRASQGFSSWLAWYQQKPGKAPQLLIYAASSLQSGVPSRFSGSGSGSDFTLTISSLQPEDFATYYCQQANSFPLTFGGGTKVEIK"
  assigned_label: "medium value"

The origin of these recorded values is patent US20190092852A1.
